Ends that are not written are not given here.
Below are % Inhibition of Plateau values measured for Aβ1-40 (Homo sapiens).
quantity kind: % Inhibition of Plateau (%)

seq string	unit label	measured
HDSGYEVHHQKLVFF [PPI-226, Aβ6-20]	%	76
KLVFFAEDVGSNKGA [PPI-228, Aβ16-30]	%	100

###

- test target: Aβ1-40 (Homo sapiens, UniProt P05067)
- Sequence (P05067 672-711): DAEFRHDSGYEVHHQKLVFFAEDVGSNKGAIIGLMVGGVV
- procedure summary: Seeded extension assay (thioflavin T fluorescence)
- Assay type: biochemical
- Design: Natural β-AP (β-AP1-40) was obtained commercially from Bachem (Torrance, Calif.); purchased Bachem (Torrance, Calif.)
- recorded conditions: Table V; 25 mole % inhibitor
Peptide text beside a SMILES is read from it. * marks the point of attachment. Cholyl = C[C@H](CCC(=O)*)[C@H]1CC[C@H]2[C@@H]3[C@H](O)C[C@@H]4C[C@H](O)CC[C@]4(C)[C@H]3C[C@H](O)[C@]12C
Reported values of % Iext'n (percent reduction of thioflavin-T fluorescence) for individual entries
quantity kind: % Iext'n (percent reduction of thioflavin-T fluorescence) (%)

compound	test target	measured
CC(C)C[C@H](NC(=O)[C@H](CCCCN)NC(=O)CC[C@@H](C)[C@H]1CC[C@H]2[C@@H]3[C@H](O)C[C@@H]4C[C@H](O)CC[C@]4(C)[C@H]3C[C@H](O)[C@]12C)C(=O)N[C@H](C(=O)N[C@@H](Cc1ccccc1)C(=O)N[C@@H](Cc1ccccc1)C(N)=O)C(C)C [PPI-319, cholyl-Aβ16-20-amide]	Aβ1-40 (Homo sapiens, UniProt P05067)	52
CC(C)[C@H](NC(=O)[C@@H](NC(=O)[C@H](CCCCN)NC(=O)CC[C@@H](C)[C@H]1CC[C@H]2[C@@H]3[C@H](O)C[C@@H]4C[C@H](O)CC[C@]4(C)[C@H]3C[C@H](O)[C@]12C)[C@@H](C)O)C(=O)N[C@@H](Cc1ccccc1)C(=O)N[C@@H](Cc1ccccc1)C(=O)O [PPI-375] (Cholyl-KTVFF-OH)	Aβ1-40 (Homo sapiens, UniProt P05067)	21
CC(C)C[C@H](NC(=O)CC[C@@H](C)[C@H]1CC[C@H]2[C@@H]3[C@H](O)C[C@@H]4C[C@H](O)CC[C@]4(C)[C@H]3C[C@H](O)[C@]12C)C(=O)N[C@H](C(=O)N[C@@H](Cc1ccccc1)C(=O)N[C@@H](Cc1ccccc1)C(=O)N[C@@H](C)C(N)=O)C(C)C [PPI-382]	Aβ1-40 (Homo sapiens, UniProt P05067)	91
CC(C)C[C@H](NC(=O)CC[C@@H](C)[C@H]1CC[C@H]2[C@@H]3[C@H](O)C[C@@H]4C[C@H](O)CC[C@]4(C)[C@H]3C[C@H](O)[C@]12C)C(=O)N[C@H](C(=O)N[C@@H](Cc1ccccc1)C(=O)N[C@@H](Cc1ccccc1)C(=O)N[C@H](C)C(=O)O)C(C)C [PPI-381]	Aβ1-40 (Homo sapiens, UniProt P05067)	11
CC(C)[C@H](NC(=O)[C@H](C)NC(=O)CC[C@@H](C)[C@H]1CC[C@H]2[C@@H]3[C@H](O)C[C@@H]4C[C@H](O)CC[C@]4(C)[C@H]3C[C@H](O)[C@]12C)C(=O)N[C@@H](Cc1ccccc1)C(=O)N[C@@H](Cc1ccccc1)C(=O)N[C@@H](C)C(=O)O [PPI-388] (Cholyl-AVFFA-OH)	Aβ1-40 (Homo sapiens, UniProt P05067)	44
CC(C)C[C@H](NC(=O)[C@H](CCCCN)NC(=O)[C@H](CCC(N)=O)NC(=O)CC[C@@H](C)[C@H]1CC[C@H]2[C@@H]3[C@H](O)C[C@@H]4C[C@H](O)CC[C@]4(C)[C@H]3C[C@H](O)[C@]12C)C(=O)N[C@H](C(=O)N[C@@H](Cc1ccccc1)C(=O)N[C@@H](Cc1ccccc1)C(=O)O)C(C)C [PPI-349, cholyl-Aβ15-20]	Aβ1-40 (Homo sapiens, UniProt P05067)	56
CC(C)C[C@H](NC(=O)[C@H](CCCCN)NC(=O)CC[C@@H](C)[C@H]1CC[C@H]2[C@@H]3[C@H](O)C[C@@H]4C[C@H](O)CC[C@]4(C)[C@H]3C[C@H](O)[C@]12C)C(=O)N[C@H](C(=O)N[C@@H](Cc1ccccc1)C(=O)N[C@@H](Cc1ccccc1)C(=O)O)[C@@H](C)O [PPI-369] (Cholyl-KLTFF-OH)	Aβ1-40 (Homo sapiens, UniProt P05067)	44
